inhibition at 1 µM for assorted compounds
molecular target: CXCR4 (Homo sapiens (Human)); experiment: Functional calcium mobilization assay (SDF-1α induced); type: cell-based; conditions: CCRF-CEM, read-out: % inhibition at 1 μM
Sequence (P61073 whole entry): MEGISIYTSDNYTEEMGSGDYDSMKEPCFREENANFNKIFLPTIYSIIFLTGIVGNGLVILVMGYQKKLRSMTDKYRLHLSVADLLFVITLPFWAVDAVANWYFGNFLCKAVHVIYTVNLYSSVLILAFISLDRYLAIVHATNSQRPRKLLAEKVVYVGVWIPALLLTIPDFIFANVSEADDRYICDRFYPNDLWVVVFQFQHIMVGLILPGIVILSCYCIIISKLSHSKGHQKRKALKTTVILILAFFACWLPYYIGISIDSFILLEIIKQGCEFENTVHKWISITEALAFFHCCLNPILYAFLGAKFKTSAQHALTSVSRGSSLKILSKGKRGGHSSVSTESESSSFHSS
REPORTED PROPERTY: inhibition at 1 µM (%)

> print(dat)
                                   compound   reported.property  units  measurement
1  CS(=O)(=O)NCCCCN(Cc1nccc2c1[nH]c1ccccc12)[C@H]1CCCc2cccnc21  inhibition at 1 µM      %            0
2  NCCCN(Cc1nccc2c1[nH]c1ccccc12)C1CCCc2cccnc21 (stereo not drawn)  inhibition at 1 µM      %            0
3  c1cnc2c(c1)CCCC2N(CCCCN1CCOCC1)Cc1nccc2c1[nH]c1ccccc12 (stereo not drawn)  inhibition at 1 µM      %           49
4  c1cnc2c(c1)CCCC2N(CCCNC1=NCCN1)Cc1nccc2c1[nH]c1ccccc12 (stereo not drawn)  inhibition at 1 µM      %            6
5  c1cnc2c(c1)CCC[C@@H]2NCc1cc2c(cn1)[nH]c1ccccc12  inhibition at 1 µM      %           39
6  CC(C)(C)OC(=O)CN(CCCCN(Cc1nccc2c1[nH]c1ccccc12)[C@H]1CCCc2cccnc21)CC(=O)OC(C)(C)C  inhibition at 1 µM      %           18
7  CC(C)(C)OC(=O)[C@@H](N)CCCN(Cc1nccc2c3ccccc3n(CC(=O)N3CCOCC3)c12)[C@H]1CCCc2cccnc21  inhibition at 1 µM      %            0
8  O=C1c2ccccc2C(=O)N1CCCn1c2ccccc2c2ccnc(CN[C@H]3CCCc4cccnc43)c21  inhibition at 1 µM      %            0
9  c1cnc2c(c1)CCC[C@@H]2N(Cc1ccc(N2CCNCC2)cc1)Cc1nccc2c1[nH]c1ccccc12  inhibition at 1 µM      %            0

---

target: CXCR4 (Homo sapiens (Human)); experiment: Functional calcium mobilization assay (SDF-1α induced); type: cell-based; settings: CEM cells, SDF-1α challenge at EC80-EC90; read-out: Ca Flux IC50
pIC50: −log10 of the molar value.
Rule: TRUE for pIC50 not less than 7, FALSE for anything less.

> print(dat)
                               query.smiles  class.name
1  NC/C=C\CN(Cc1nccc2c1[nH]c1ccccc12)[C@H]1CCCc2cccnc21       FALSE
2  NC(=O)CCCN(Cc1nccc2c1[nH]c1ccccc12)[C@H]1CCCc2cccnc21       FALSE
3  NCCCCN(Cc1nccc2c3ccccc3n(Cc3cccnc3)c12)[C@H]1CCCc2cccnc21       FALSE
4  NC(=O)Cn1c2ccccc2c2ccnc(CN(CCCN3CCNCC3)[C@H]3CCCc4cccnc43)c21        TRUE

---

target: CXCR4 (Homo sapiens (Human)); test: Functional calcium mobilization assay (SDF-1α induced); assay type: cell-based; conditions: CCRF-CEM, read-out: % inhibition at 1 μM
Let's look at some compounds and their measured inhibition at 1 µM.
REPORTED PROPERTY: inhibition at 1 µM (%)

> print(dat)
                                   compound  units  measurement
1  c1cnc2c(c1)CCCC2N(CCCN1CCOCC1)Cc1nccc2c1[nH]c1ccccc12 (stereo not shown)      %           20
2  CN(Cc1nccc2c3ccccc3n(CCCCN3C(=O)c4ccccc4C3=O)c12)[C@H]1CCCc2cccnc21      %           32
3  CC(C)(C)OC(=O)N(CCCCN(Cc1nccc2c1[nH]c1ccccc12)[C@H]1CCCc2cccnc21)C(=O)OC(C)(C)C      %           19
4  c1cnc2c(c1)CCCC2N(CCNC1=NCCN1)Cc1nccc2c1[nH]c1ccccc12 (stereo not shown)      %            0

Origin of the recorded values: patent US9314468B2
